Value source: paper PMC7076382

details: rat
Non-standard residues stand in square brackets, D forms with d. Residues, ends and D or L forms follow the SMILES beside them. dTrp(2-Me) = Cc1[nH]c2ccccc2c1C[C@@H](N)C(=O)O

compound | Papp [×10⁻⁶ cm/s]
Cc1[nH]c2ccccc2c1C[C@@H](NC(=O)[C@@H](N)Cc1cnc[nH]1)C(=O)N[C@@H](C)C(=O)N[C@@H](Cc1c[nH]c2ccccc12)C(=O)N[C@H](Cc1ccccc1)C(=O)N[C@@H](CCCCN)C(N)=O [hexarelin] (H-H[dTrp(2-Me)]AW[dF]K-NH2) | 0.19
